Ratio (^3 H-DA/^3 H-HALO IC50 ratio) tested on dopamine receptors (3H-Haloperidol sites) (Bos taurus, UniProt P20288): recorded values
Sequence (P20288 whole entry): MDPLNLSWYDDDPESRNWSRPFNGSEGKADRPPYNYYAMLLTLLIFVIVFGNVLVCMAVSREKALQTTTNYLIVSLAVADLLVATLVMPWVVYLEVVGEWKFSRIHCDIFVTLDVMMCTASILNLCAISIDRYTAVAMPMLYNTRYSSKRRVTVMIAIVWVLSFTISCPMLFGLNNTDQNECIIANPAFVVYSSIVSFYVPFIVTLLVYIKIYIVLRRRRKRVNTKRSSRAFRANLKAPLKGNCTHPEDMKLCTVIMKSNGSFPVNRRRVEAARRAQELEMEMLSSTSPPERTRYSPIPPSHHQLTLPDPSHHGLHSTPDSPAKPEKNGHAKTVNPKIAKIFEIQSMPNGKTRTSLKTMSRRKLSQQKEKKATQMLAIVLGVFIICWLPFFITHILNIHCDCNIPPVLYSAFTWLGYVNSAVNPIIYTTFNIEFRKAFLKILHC
Where a name gives a salt, the structure may show the parent alone.
Result Type: Ratio (^3 H-DA/^3 H-HALO IC50 ratio)

Below: 2 molecules and their reported Ratio (^3 H-DA/^3 H-HALO IC50 ratio).
>>> observed_value("CN(C)CCCc1c(-c2ccccc2)sc2ccc(Cl)cc12 [hydrochloride]")
137
>>> observed_value("CN(C)CCc1c(-c2ccccc2)sc2ccc(Cl)cc12 [hydrochloride]")
31

1: CN(C)CCc1c(-c2ccccc2)sc2ccccc12 [hydrochloride]
2: CCN(CC)CCc1c(-c2ccccc2)sc2ccc(Cl)cc12 [hydrochloride]
Ask: Which entry has a larger number for Ratio (^3 H-DA/^3 H-HALO IC50 ratio), 1 or 2 ? Choose, then provide that item's label.
Reply: 2
(2: 50, 1: 21)

----------
Target: dopamine receptors (3H-dopamine sites)
Assay: Receptor Binding Assay: stereospecific binding of 3H-dopamine to calf caudate membranes
Conditions: displacement of 5nM 3H-dopamine; calf caudate membrane homogenate; 37° C., 15 minutes
Structures can show the parent of a compound that is named as a salt.
Result Type: IC50 (µM)

Some compounds with known IC50 results, for comparison:
>>> observed_value("Cl.Clc1ccc2sc(-c3ccccc3)c(CCN3CCCC3)c2c1 [hydrochloride]")
48
>>> observed_value("CCN(CC)CCc1c(-c2ccccc2)sc2ccc(Cl)cc12 [hydrochloride]")
6
>>> observed_value("CN(C)CCc1c(-c2ccccc2)sc2ccccc12 [hydrochloride]")
12

a: CN(C)CCc1c(-c2ccccc2)sc2ccc(Cl)cc12 [hydrochloride]
b: CN(C)CCCc1c(-c2ccccc2)sc2ccc(Cl)cc12 [hydrochloride]
Ask: Identify the entry with the smaller IC50: a or b . Kindly state the label of the option you pick.
Reply: a

----------
Biological target: dopamine receptors (3H-Haloperidol sites) (Bos taurus)
pIC50: −log10 of the molar value. Where a name gives a salt, the structure may show the parent alone.
Result Type: pIC50

A: CN(C)CCc1c(-c2ccccc2)sc2ccccc12 [hydrochloride]
B: CCN(CC)CCc1c(-c2ccccc2)sc2ccc(Cl)cc12 [hydrochloride]
Ask: Lab note: check whether A or B shows the higher recorded pIC50. Provide the label of your selected option as the answer.
Reply: B

1: CN(C)CCc1c(-c2ccccc2)sc2ccc(Cl)cc12 [hydrochloride]
2: CN(C)CCCc1c(-c2ccccc2)sc2ccc(Cl)cc12 [hydrochloride]
Ask: Could you tell me which of 1 and 2 has the lower pIC50 reading? Answer with the label corresponding to your selection.
Reply: 1
(1: 6.19, 2: 6.46)
